# System: BaF3
# testName: Inhibition of EGFR-C797S/T790M/L858R mutant in mouse BaF3 cells assessed as inhibition of EGFR phosphorylation at 10 to 1000 nM incubated for 6 hrs by Western blotting analysis
# Format: cell-based
# conditionDetails: dose 10-1000 nM
The source made the active and inactive calls. No cut-off for these calls is given here.
reportedEndpoint: inhibition

Example cases with answers are listed next.
Cc1cc(Nc2ncc(Cl)c(Nc3ccccc3S(=O)(=O)C(C)C)n2)c(OC(C)C)cc1C1CCNCC1 = inactive
COc1cc(N2CCC(N(C)C)CC2)ccc1Nc1ncc(Cl)c(Nc2ccccc2P(C)(C)=O)n1 = Active
COc1cc(N2CCC(N3CCN(C)CC3)CC2)ccc1Nc1ncnc(Nc2ccccc2S(=O)(=O)C(C)C)n1 = inactive
COc1cc(N2CCC(N3CCN(C)CC3)CC2)ccc1Nc1ncc(Cl)c(Nc2ccccc2P(C)(C)=O)n1 = Active

Here is the next item to consider.
For COc1cc(N2CCC(N3CCN(C)CC3)CC2)ccc1Nc1ncc(Cl)c(Nc2ccccc2S(=O)(=O)C(C)C)n1 , write its inhibition.
inactive
